Please respond with reported TGI for every item in the list.
System: LOX IMVI melanoma
protocolDescription: NCI tumour cell line growth inhibition, 48 h
Answers are plain numbers, in µM.

The cases that follow already have their TGI on record.
molecule: C=C1C(=O)O[C@H]2[C@H]1CC/C(Cn1cc(-c3ccsc3)nn1)=C\CC[C@@]1(C)O[C@@H]21
TGI (µM): 2.61

molecule: CCCCC(N)CSSCC(N)CCCC (stereo not drawn)
TGI (µM): 32.1

molecule: CN[C@H]1CC[C@]23C[C@]24CC[C@]2(C)[C@@H]([C@H](C)N(C)C)CC[C@@]2(C)[C@@H]4CC[C@H]3C1(C)C
TGI (µM): 18.9

molecule: COc1ccc(NS(=O)(=O)c2ccc(N=C3C=C(Nc4ccc(S(=O)(=O)Nc5ccc(OC)nn5)cc4)C(=O)c4ccccc43)cc2)nn1
TGI (µM): 30.4

molecule: CCN(CC)CCC(=O)N1C/C(=C/c2ccccc2)C(=O)/C(=C\c2ccccc2)C1
TGI (µM): 0.949

molecule: C[C@H]1[C@H](C)CC[C@]2(C(=O)OC3OC(CO)C(O)C(O)C3O)CC[C@]3(C)C(=CC[C@@H]4[C@@]5(C)C[C@@H](O)[C@@H]6OC(=O)c7cc(O)c(O)c(O)c7-c7c(cc(O)c(O)c7O)C(=O)OC[C@]6(CO)[C@@H]5CC[C@]43C)[C@H]12 (stereo partly drawn)
TGI (µM): 25.8

molecule: N#Cc1ccc(NC(=O)Nc2nc3ccc(OC(F)(F)F)cc3s2)cc1
TGI (µM): 4.67

molecule: CCOC(=O)/C=C(/C(=O)OCC)n1ccc(=O)n(CC(=O)OCC)c1=O
TGI (µM): 1.81

The recorded TGI for C[C@@H]1OC(=O)NN=C1c1ccc(-c2ccc(F)cc2)c(C(F)(F)F)c1 is 18.8
